# measured_on: T1, 16mer biotinylated human IL-13 peptide number 24 (human, N-terminal biotin; C-terminal amide)
# T1 construct: format Biotin-SGSG-PEPTIDE-amide; also called Peptide 24
# T1 peptide: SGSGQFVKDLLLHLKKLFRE
# assay_details: BIAcore analysis 3, antibody over biotinylated peptide on SA chip
readout_name: koff (s⁻¹)
One number for each entry, in s⁻¹.

*Q* Sample monoclonal antibody 6A1 (antibody, IgG1, V domains shown, also called 6A1 parental mAb; parental mouse mAb 6A1) VH: EIQLQQSVAELVRPGASVRLSCTASGFYIKDTYMHWVIQRPEQGLEWIGTIDPANGNTKYVPKFQGKATITADTSSNTAYLRLSSLTSEDTAIYYCARSIYDDYHYDDYYAMDYWGQGTSVTVSS VL: DVLMTQTPLSLPVSLGDQASISCRSSQNIVHINGNTYLEWYLQKPGQSPKLLIYKISDRFSGVPDRFSGSGSGTDFTLKISRVEAEDLGVYYCFQGSHVPWTFGGGTKLEIK — what was its koff?
*A* 0.000915
